B1: TRIM63 (parent)
chain: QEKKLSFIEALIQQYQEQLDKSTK

Variants of: B1
Test: protein stability index of a GFP-peptide fusion (GPS, HEK-293T) (PSI 1-6); higher = more stable;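 also: lentivirally expressed fusions sorted by FACS into six bins by GFP to DsRed ratio, PSI derived from sequencing read proportions per bin multiplied by bin number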
Details: c terminus: a fixed tail appended
result type: protein stability index

Consider the worked cases shown below.
>  <variant identifier>
L5N

>  <protein stability index>
4.19

$$$$
>  <variant identifier>
K24V

>  <protein stability index>
2.31

$$$$

Could you tell me which protein stability index is on file for "S6A" ?
2.16

Also "F7E" ?
4.38

What do we get for "E9P" ?
3.96

What about this variant? "L11E"
4.73

Then "E9M" ?
2.22

And then "S22P" , what is it?
3.1

Then what about the variant "K21V" ?
3.04

And the next one, "E17T" ?
2.68

Same lookup for "Q1P" , please.
2.39

How about "E2T" ?
2

Cool, now "K4N"
3.32

# repeat for "K3H"
2.32

How about "Q14C" ?
2.8

"I12M" , same question.
2.95

// next record "Q1W"
2.76

Same again, this time with "L5K"
3.11

Try this variant too: "I8N"
5.18

Okay, and "Q18S" ?
2.71
